Tested on: OVCAR-5 ovarian
assay procedure: NCI tumour cell line growth inhibition, 48 h
We begin with a simple list: items and their reported TGI.

Sample records with TGI:
CC1c2cc(c3c(c2O)CN([C@@H](C)C2CCCCC2)CO3)C(C)c2cc(c3c(c2O)CN([C@@H](C)C2CCCCC2)CO3)C(C)c2cc(c3c(c2O)CN([C@@H](C)C2CCCCC2)CO3)C(C)c2cc1c1c(c2O)CN([C@@H](C)C2CCCCC2)CO1 (stereo partly specified) :: 4.04 µM
CC(C)N1[C@@H]2CCCC[C@H]2N(C(C)C)P1(=O)C(=O)/C=C/c1ccccc1 :: 6.66 µM
NC(=O)OCc1c(-c2ccccc2)nn(-c2ccccc2)c1COC(N)=O :: > 100 µM
C[CH2][Sn]([CH2]C)([O]C(=O)c1ccc(F)cc1)[O][Sn]([CH2]C)([CH2]C)[O]C(=O)c1ccc(F)cc1 :: > 100 µM

TGI reading for `O=C(C=Nc1ccccc1C(=O)[O-])c1cccs1.O=C(C=Nc1ccccc1C(=O)[O-])c1cccs1.[Zn+2]` : 71.9 µM

TGI reading for `Cc1cc2nc(C(Cl)Cl)nc(-c3ccccc3)n2n1` : 17.1 µM

TGI reading for `CCCCCCCCCCCCCCCCCC[N+](C)(C)Cc1ccc(C[N+](C)(C)CCCCCCCCCCCCCCCCCC)cc1` : 96.7 µM

TGI reading for C/C(=N/NC(N)=S)C(CN(C)C)C(C1=C(O)c2ccccc2OC1)c1ccccc1 (stereo unspecified) : > 100 µM

TGI reading for FC(F)(F)c1cccc(C2SCc3nc4ccccc4n32)c1 (stereo unspecified) : > 100 µM
